TESTED TARGET: CYP1A2 (Homo sapiens, UniProt P05177)
Sequence (P05177 whole entry): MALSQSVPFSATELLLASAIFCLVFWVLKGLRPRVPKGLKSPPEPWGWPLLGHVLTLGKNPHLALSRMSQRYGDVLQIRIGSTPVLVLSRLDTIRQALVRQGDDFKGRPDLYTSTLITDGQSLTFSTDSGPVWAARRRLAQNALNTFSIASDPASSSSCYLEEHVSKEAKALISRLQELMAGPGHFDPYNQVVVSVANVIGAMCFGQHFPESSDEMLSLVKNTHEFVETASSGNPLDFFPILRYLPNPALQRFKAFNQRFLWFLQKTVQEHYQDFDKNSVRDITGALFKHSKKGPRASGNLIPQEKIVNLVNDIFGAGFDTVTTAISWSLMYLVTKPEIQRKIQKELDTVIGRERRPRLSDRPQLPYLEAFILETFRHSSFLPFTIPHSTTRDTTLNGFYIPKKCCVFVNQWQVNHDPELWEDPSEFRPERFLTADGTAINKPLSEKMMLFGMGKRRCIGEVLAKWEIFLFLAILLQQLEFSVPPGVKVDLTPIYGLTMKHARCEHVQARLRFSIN
TEST: Inhibition of Cytochrome P450 1A2 at 10 uM
Format: ADME
Mark true for reported inhibition at 10 µM of 60% or greater; mark false for anything smaller.

# example entries with known answers
CSc1nc(-c2ccc(F)cc2)c(-c2ccncc2)n1C1CC(C)(C)NC(C)(C)C1 = false
CSc1nc(-c2ccc(F)cc2)c(-c2ccnc(NC(C)=O)c2)n1C1CC(C)(C)NC(C)(C)C1 = false
CSc1nc(-c2ccc(F)cc2)c(-c2ccnc(NC(C)=O)c2)n1C = false
CSc1nc(-c2ccc(F)cc2)c(-c2ccnc(Cl)c2)[nH]1 = true
CSc1nc(-c2ccc(F)cc2)c(-c2ccncc2)[nH]1 = false

Decide: is the reported value of inhibition at 10 µM for CSc1nc(-c2ccc(F)cc2)c(-c2ccnc(OC(C)C)c2)[nH]1 equal to or greater than 60%?
true

Does the reported inhibition at 10 µM for CSc1nc(-c2ccc(F)cc2)c(-c2ccnc(NC(C)c3ccccc3)c2)n1C (stereo not drawn) fall at or above the 60% mark?
false
